# Tested on: Anguilliformes
# TEST: Reactivation of DFP-inhibited eel AChE assessed as reactivation efficacy by spectrophotometry
MEASURED_PARAMETER: log10(Activity) (log10 of the value in mmol⁻¹ min⁻¹)
Heads up: the numbers are on a log10 scale; they represent Activity in mmol⁻¹ min⁻¹.

Solved cases (3 shown):
* COc1cc(/C=N/NC(=O)c2ccc(N)cc2)cc(Br)c1OCc1ccccc1Cl | 2.33
* OC(CNCCNc1nccc(C(F)(F)F)n1)COc1cccc(C(F)(F)F)c1 (centres undefined) | 1.58
* CCOC(=O)c1cc(-c2nc(C(=O)NN)cs2)c(C)nc1C(F)(F)F | 2.19

## Task If you can, please state the reported log10(Activity) value of FC(F)(F)c1ccnc(Oc2ccc(/C=N/NC(=S)Nc3cc(Cl)ccc3Cl)cc2)n1 .
## Result 1.73

## Task If you can, please state the reported log10(Activity) value of Cc1cc(C)cc(NC(=O)N2CCCN(c3ncccc3[N+](=O)[O-])CC2)c1 .
## Result 1.89

## Task If you can, please state the reported log10(Activity) value of C[n+]1ccccc1C=NO .
## Result 0.42

## Task If you can, please state the reported log10(Activity) value of O=[N+]([O-])c1ccc(N2CCCN(C(=S)Nc3ccc(F)cc3Br)CC2)nc1 .
## Result 1.03

## Task If you can, please state the reported log10(Activity) value of O=C(Nc1cc(F)cc(F)c1)N1CCCN(c2ncc(C(F)(F)F)cc2Cl)CC1 .
## Result 1.91

## Task If you can, please state the reported log10(Activity) value of OC(CNCCNc1ccc(C(F)(F)F)cn1)COc1ccccc1 (centres undefined) .
## Result 1.31

## Task If you can, please state the reported log10(Activity) value of Cc1nc(-c2ccccn2)nc(N2CCN(CCO)CC2)c1Cl .
## Result 1.14

## Task If you can, please state the reported log10(Activity) value of COc1cc(C(=O)Oc2c(Br)cc(Br)cc2/C=N/NC(=O)C(O)(c2ccccc2)c2ccccc2)cc(OC)c1OC .
## Result 1.60

---

# Tested on: Anguilliformes
# TEST: Reactivation of DFP-inhibited eel AChE assessed as reactivation efficacy by spectrophotometry
Please use t whenever Activity is not below 30 mmol⁻¹ min⁻¹, and f whenever it is.

// known answers, use as guide
- O=C1CCC(=O)N1c1ccc(S(=O)(=O)N2CCN(c3nccc(C(F)(F)F)n3)CC2)cc1: t
- COc1cc(/C=N/NC(=O)c2cnc3ccccc3c2)cc(Br)c1OCc1ccccc1Cl: f
- OC(CNCCNc1nccc(C(F)(F)F)n1)COc1ccccc1 (stereo not given): f
- COc1cc(/C=N/NC(=O)c2ccccc2NC(C)=O)cc(Br)c1OCc1ccccc1Cl: t

## Task Does the reported Activity for COc1cccc(C(=O)Oc2c(Br)cc(Br)cc2/C=N/NC(=O)CNC(=O)c2ccc(OC)c(OC)c2)c1 fall at or above the 30 mmol⁻¹ min⁻¹ mark?
## Result t

## Task Does the reported Activity for O=[N+]([O-])c1ccc(OCC(O)CNCCNc2nccc(C(F)(F)F)n2)cc1 (stereo not given) fall at or above the 30 mmol⁻¹ min⁻¹ mark?
## Result t

## Task Does the reported Activity for CC(CO)(CO)NCC(O)COc1ccc(OC(F)(F)F)cc1 (stereo not given) fall at or above the 30 mmol⁻¹ min⁻¹ mark?
## Result t

## Task Does the reported Activity for OC(CNCCNc1nccc(C(F)(F)F)n1)CSc1ccccc1 (stereo not given) fall at or above the 30 mmol⁻¹ min⁻¹ mark?
## Result t

## Task Does the reported Activity for OC(COc1ccc(Cl)c(Cl)c1)CN1CCN(c2nc3ccc(Cl)cc3s2)CC1 (stereo not given) fall at or above the 30 mmol⁻¹ min⁻¹ mark?
## Result f

## Task Does the reported Activity for OC(CNCCNc1nccc(C(F)(F)F)n1)COc1ccc(OC(F)(F)F)cc1 (stereo not given) fall at or above the 30 mmol⁻¹ min⁻¹ mark?
## Result t

## Task Does the reported Activity for S=C(NC1CCCCCCC1)N1CCCN(c2nc3ccc(Cl)cc3s2)CC1 fall at or above the 30 mmol⁻¹ min⁻¹ mark?
## Result f

## Task Does the reported Activity for FC(F)(F)c1ccnc(NCCNC(=S)NCc2ccco2)n1 fall at or above the 30 mmol⁻¹ min⁻¹ mark?
## Result f

## Task Does the reported Activity for OC(CNCCNc1ccc(C(F)(F)F)cn1)CSc1ccc(F)cc1 (stereo not given) fall at or above the 30 mmol⁻¹ min⁻¹ mark?
## Result t

## Task Does the reported Activity for CC(C)(C)OC(=O)N1CCCN(C(=S)Nc2ccccc2N2CCOCC2)CC1 fall at or above the 30 mmol⁻¹ min⁻¹ mark?
## Result t

---

Activity for assorted compounds
# Tested on: Anguilliformes
# TEST: Reactivation of DFP-inhibited eel AChE assessed as reactivation efficacy by spectrophotometry
Please answer in the form of a number followed by its unit of measurement.

- OC(CNCCNc1nccc(C(F)(F)F)n1)Cn1ccc2ccccc21 (stereo not drawn): 57 mmol⁻¹ min⁻¹
- COc1ccc(CCNCC(O)Cn2ccc3ccccc32)cc1OC (stereo not drawn): 79.6 mmol⁻¹ min⁻¹

Note: attention shifts to another entry.
## Task If you can, please state the reported Activity value of OC(CNCCNc1nccc(C(F)(F)F)n1)COc1ccc(Cl)c(Cl)c1 (stereo not drawn) .
## Result 75.2 mmol⁻¹ min⁻¹
